target: T1, recombinant mouse ROR1 protein (Acrobiosystems, RO1-M5221) (mouse, UniProt Q9Z139 30-403); assay: ELISA, wells coated with recombinant mouse ROR1 protein, IgG titrated, HRP anti-Fab detection, OD (450-650nm)
T1 construct: Bought protein; also called mouse ROR1 antigen
T1 sequence (Q9Z139 30-403 limits assumed): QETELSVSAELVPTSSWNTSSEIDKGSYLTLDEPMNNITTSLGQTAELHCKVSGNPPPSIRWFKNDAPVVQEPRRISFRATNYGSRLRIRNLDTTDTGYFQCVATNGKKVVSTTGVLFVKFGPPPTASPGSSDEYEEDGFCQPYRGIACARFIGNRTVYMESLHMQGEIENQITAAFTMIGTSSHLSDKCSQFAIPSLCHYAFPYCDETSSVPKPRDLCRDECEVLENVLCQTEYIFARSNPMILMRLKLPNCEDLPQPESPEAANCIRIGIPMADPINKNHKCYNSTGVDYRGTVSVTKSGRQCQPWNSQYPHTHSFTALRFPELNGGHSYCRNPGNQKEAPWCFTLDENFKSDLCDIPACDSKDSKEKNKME
Listed below: EC50 (read off the curve) values for each entry.
observable: EC50 (read off the curve)

binder="anti-ROR1 IgG antibody A2F3 (antibody, V domains shown, Full IgG form (human IgG1 constant region, lambda light chain), expressed in CHO-S cells) VH: EVQLLESGGGLVQPGGSLRLSCAASGFTFSSYDMSWVRQAPGKGLEWVSWISPGGGSKYYADSVKGRFTISRDNSKNTLYLQMNSLRAEDTAVYYCARVNGRFDYWGQGTLVTVSS VL: QSVLTQPPSASGTPGQRVTISCSGSSSNIGNNNVSWYQQLPGTAPKLLIYADSHRPSGVPDRFSGSKSGTSASLAISGLRSEDEADYYCATWDYSLSGYVFGGGTKLTVLG" observable="EC50 (read off the curve)" result="~0.7 nM"
binder="anti-ROR1 IgG antibody A2F2 (antibody, V domains shown, Full IgG form (human IgG1 constant region, lambda light chain), expressed in CHO-S cells) VH: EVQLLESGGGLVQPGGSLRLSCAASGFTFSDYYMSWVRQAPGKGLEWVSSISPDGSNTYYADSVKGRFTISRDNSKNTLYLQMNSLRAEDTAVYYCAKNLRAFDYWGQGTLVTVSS VL: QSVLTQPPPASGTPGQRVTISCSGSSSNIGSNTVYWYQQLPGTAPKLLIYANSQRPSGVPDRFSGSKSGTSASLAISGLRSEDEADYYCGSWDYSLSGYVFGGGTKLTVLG" observable="EC50 (read off the curve)" result="~0.3 nM"
binder="anti-ROR1 IgG antibody C2E3 (antibody, V domains shown, Full IgG form (human IgG1 constant region, lambda light chain), expressed in CHO-S cells) VH: EVQLLESGGGLVQPGGSLRLSCAASGFTFSNYAMSWVRQAPGKGLEWVSSISHNSGSTYYADSVKGRFTISRDNSKNTLYLQMNSLRAEDTAVYYCAKFISARKSLGRSYSNGMDVWGQGTLVTVSS VL: QSVLTQPPSASGTPGQRVTISCTGSSSNIGSNDVTWYQQLPGTAPKLLIYADSKRPSGVPDRFSGSKSGTSASLAISGLRSEDEADYYCGTWDYSLSGYVFGGGTKLTVLG" observable="EC50 (read off the curve)" result="~0.3 nM"
binder="anti-ROR1 IgG antibody DG6 (antibody, V domains shown, Full IgG form (human IgG1 constant region, lambda light chain), expressed in CHO-S cells) VH: EVQLLESGGGLVQPGGSLRLSCAASGFTFSDYDMSWVRQAPGKGLEWVSVISPDGGSIYYADSVKGRFTISRDNSKNTLYLQMNSLRAEDTAVYYCARDVVECNMNPCSYDNAMDVWGQGTLVTVSS VL: QSVLTQPPSASGTPGQRVTISCSGSSSNIGSNYVSWYQQLPGTAPKLLIYDDSHRPSGVPDRFSGSKSGTSASLAISGLRSEDEADYYCGAWDDSLSGYVFGGGTKLTVLG" observable="EC50 (read off the curve)" result="~0.1 nM"
binder="anti-ROR1 IgG antibody AB4 (antibody, V domains shown, Full IgG form (human IgG1 constant region, lambda light chain), expressed in CHO-S cells) VH: EVQLLESGGGLVQPGGSLRLSCAASGFTFSSYDMSWVRQAPGKGLEWVSWISPDSGSIYYADSVKGRFTISRDNSKNTLYLQMNSLRAEDTAVYYCARPTGRFDYWGQGTLVTVSS VL: QSVLTQPPSASGTPGQRVTISCSGSSSNIGNNNVNWYQQLPGTAPKLLIYYDNKRPSGVPDRFSGSKSGTSASLAISGLRSEDEADYYCGTWDASLSGYVFGGGTKLTVLG" observable="EC50 (read off the curve)" result="~0.2 nM"
binder="anti-ROR1 IgG antibody D2B12 (antibody, V domains shown, Full IgG form (human IgG1 constant region, lambda light chain), expressed in CHO-S cells) VH: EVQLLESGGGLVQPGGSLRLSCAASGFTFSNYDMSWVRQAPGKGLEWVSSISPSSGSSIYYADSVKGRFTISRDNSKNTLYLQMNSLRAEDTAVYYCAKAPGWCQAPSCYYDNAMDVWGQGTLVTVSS VL: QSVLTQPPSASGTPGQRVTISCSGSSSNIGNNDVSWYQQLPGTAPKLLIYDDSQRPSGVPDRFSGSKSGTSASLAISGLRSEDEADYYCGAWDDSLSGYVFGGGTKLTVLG" observable="EC50 (read off the curve)" result="~0.3 nM"
